test: Plasma concentration of Formula I at midpoint time of post dosing PET scans
Format: in vivo
stated.conditions: male, human, 10 mg, SERT cohort, 10 mg once a day, day 10, 4 h post dose
measured.attribute: concentration at 4 h (ng/mL)

>>> numeric_result("Clc1ccc(C2CNCc3cc(-c4ccc5ncnn5c4)ccc32)cc1Cl (stereo not shown) [Formula I]")
201
